# Target or system: Voltage-gated potassium channel subunit beta-2 (Rattus norvegicus) (UniProt P62483)
# Sequence (P62483 whole entry, looked up): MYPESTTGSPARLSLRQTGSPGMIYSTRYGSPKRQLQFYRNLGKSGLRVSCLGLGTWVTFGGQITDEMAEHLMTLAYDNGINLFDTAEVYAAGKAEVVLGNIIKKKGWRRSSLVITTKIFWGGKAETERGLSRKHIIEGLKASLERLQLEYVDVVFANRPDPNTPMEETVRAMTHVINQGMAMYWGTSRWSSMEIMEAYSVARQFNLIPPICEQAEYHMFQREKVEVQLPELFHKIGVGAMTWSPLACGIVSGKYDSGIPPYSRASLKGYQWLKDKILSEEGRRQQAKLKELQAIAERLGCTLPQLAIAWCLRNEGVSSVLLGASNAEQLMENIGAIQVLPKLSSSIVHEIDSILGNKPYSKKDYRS
# Assay protocol: enhancers of rat Kvbeta2 NADPH turnover – biochemical, NADPH fluorescence, primary screen (AID 623);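 note: fluorescence intensity change per second fitted from 20 to 320 s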
# Measurement parameters: Recombinant KvBeta, NADPH fluorescence decrease slope, 10 min; at 10 µM; active compounds read low
Where a SMILES comes first, the peptide text is derived from it. The star is where a group is joined. Boc = CC(C)(C)OC(=O)*
Assignment: determine reported NADPH fluorescence slope for the given compounds.
Give bare numbers.

Past entries and their recorded results:
| Compound | NADPH fluorescence slope |
| --- | --- |
| CC(=O)Nc1ccc(Oc2cc(C#N)c(C#N)cc2N2CCCCCC2)cc1 | 2.3e-05 |
| FC(F)(F)COc1nc(N2CCCCC2)nc(N2CCNCC2)n1 | -5.4e-05 |
| C1CNCCNCCCNCCNC1 | -6.6e-05 |
| O=C(C1CCC1)N1CCc2cc(S(=O)(=O)N3CCc4ccccc4C3)ccc21 | 7.8e-05 |
| CSc1nnc(-c2cnccn2)n1C | -3.8e-06 |

Batch request: NADPH fluorescence slope per item, same order as input.
1. COC(=O)C(C)Oc1ccc2c3c(c(=O)oc2c1)CCCCC3 (stereo not drawn)
2. Cc1ccc(C)c(SCC(=O)Nc2nnc(-c3ccccc3)o2)c1
3. CCOC(=O)C1CCCN(Cc2nc(N)nc(Nc3ccccc3)n2)C1 (stereo not drawn)
4. Cc1ccc(F)cc1NC(=O)c1cccc2nccnc12
5. CCOc1ccc2c(c1)sc1nc(C(=O)OC)cc(=O)n12
6. COc1cc(C2C(C#N)=C(N)OC3=C2C(=O)CCC3)ccc1OC(=O)N1CCOCC1 (stereo not drawn)
7. Cc1cc(=O)n2[nH]c(COc3ccccc3)nc2n1
8. CS(=O)(=O)N1CCN(CC2CC3C=CC2C3)CC1 (stereo not drawn)

Result string:
1. -1.7e-05
2. -3.2e-05
3. -4.6e-05
4. 2e-05
5. -1.7e-05
6. -7.7e-05
7. -4.3e-05
8. -2e-05

Provide reported NADPH fluorescence slope for each item, in the same order as listed.
1. CNCCC(Oc1ccc(C(F)(F)F)cc1)c1ccccc1 (stereo not drawn)
2. Cn1c2ccccc2c2c(C(=O)NCCCN3CCCC3=O)cn(C3CCCCC3)c(=O)c21
3. CCOC(=O)N1CCC(O)(c2cc(C)c(C)cc2C)CC1
4. CC(C)(C)C(=O)Oc1cc(N)n(S(=O)(=O)c2ccccc2)n1
5. CC(C)CC(NC(=O)OC(C)(C)C)C(=O)NC(C(=O)NC(C)C(N)=O)C(C)C (stereo not drawn) (Boc-Leu-Val-Ala-NH2; configuration not given here)
6. CCOC(=O)C1=C(CC)Nc2ccccc2N=C1NC(=O)Nc1ccccc1OC
7. COc1ccc(C2C(=O)N(C3CCCCC3)CC(=O)N2Cc2ccco2)cc1 (stereo not drawn)
8. CCOC(=O)N1CCC(Nc2c(-c3ccc(C)cc3)c(=O)c2=O)CC1

Result string:
1: -4.5e-05; 2: 3.4e-05; 3: -2.5e-05; 4: -5.6e-05; 5: -1.3e-05; 6: 2.9e-06; 7: 1.7e-05; 8: -3.2e-05

// batch mode: one NADPH fluorescence slope value per listed entry
1. CC(=O)Nc1nc(C)c(-c2csc(Nc3ccc(O)cc3)n2)s1
2. CCN(CC)S(=O)(=O)c1ccc2oc(C(=O)O)c(C)c2c1

Result string:
-2.7e-05
0.000115

meta.source: PubChem BioAssay
